# assayed.system: T1, HLA-A*01:01_… (HLA-PEPTIDE target G2), recombinant biotinylated complex (human, enzymatically biotinylated (BirA))
# T1 construct: also called G2-pHLA
# protocol.description: BLI, pHLA on sensor, Fab titrated, 1:1 model
Field: pKd. Provide a value for each of the binders that follow.
The read-out pKd is expressed as -log10 of concentration in moles per litre.

Look at this binder and give its reported pKd. G2(1B06) Fab (Fab, V domains shown, Fab) VH: QVQLVQSGAEVKKPGASVKVSCKASGGTFSNYILSWVRQAPGQGLEWMGWINPDSGGTNYAQKFQGRVTMTRDTSTSTVYMELSSLRSEDTAVYYCARGSYGMDVWGQGTTVTVSS VL: DIQMTQSPSSLSASVGDRVTITCRASQSISRWLAWYQQKPGKAPKLLIYAASSLQSGVPSRFSGSGSGTDFTLTISSLQPEDFATYYCQQSYSTPYTFGQGTKLEIK 7.35

Any idea what pKd was measured for G2(1H01) Fab (Fab, V domains shown, Fab) VH: QVQLVQSGAEVKKPGASVKVSCKASGYTFTRYTINWVRQAPGQGLEWMGWINPNSGGTNYAQKFQGRVTMTRDTSTSTVYMELSSLRSEDTAVYYCARDFVGYDDWGQGTLVTVSS VL: DIQMTQSPSSLSASVGDRVTITCRASQSVGNWLAWYQQKPGKAPKLLIYGASSLQTGVPSRFSGSGSGTDFTLTISSLQPEDFATYYCQQSYSAPYTFGQGTKVEIK ? 7.81

Quick one: pKd of G2(2A11) Fab (Fab, V domains shown, Fab) VH: EVQLLESGAEVKKPGASVKVSCKASGYTFTTYDLAWVRQAPGQGLEWMGWINPNSGGTNYAQKFQGRVTMTRDTSTSTVYMELSSLRSEDTAVYYCARANWLDYWGQGTLVTVSS VL: DIQMTQSPSSLSASVGDRVTITCRASQDISRWLAWYQQKPGKAPKLLIYAASRLQAGVPSRFSGSGSGTDFTLTISSLQPEDFATYYCQQSYSTPYSFGQGTKLEIK ? 7.55
